Assay protocol: chemical genetic growth profiling, strain panel (AID 1159580);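 note: tested at 20 µM; growth read once vehicle control cultures reached saturation at 30 °C; 1 = growth at the plate median or of vehicle wells; lower values mean less growth of the strain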
Conditions used: S. cerevisiae deletion strains, growth OD, locus YBR171W, strain sec66, active compounds read low
The whole screen tested about 5,500 compounds, of which about 2,000 (36%) were called active. Inconclusive results (about 18%) are left out. The list shows a part of the results.
Result type: normalized growth

For orientation, consider the following solved cases.
NC(=O)NO | 1.02 (inactive)
COc1c2ccoc2cc2oc(C)cc(=O)c12 | 0.987 (inactive)
NCCc1cc(O)c(O)cc1O | 0.983 (inactive)
O=C(CCBr)N1CCN(C(=O)CCBr)CC1 | 1.04 (inactive)
COc1cc(-c2coc3cc(O[C@@H]4O[C@H](CO)[C@@H](O)[C@H](O)[C@H]4O)c(OC)c(O)c3c2=O)cc(O)c1OC | 0.99 (inactive)

Quick request: normalized growth for each listed item, please.
1. NCCc1c[nH]c2ccccc12
2. O=C(NC1CCCCC1)NC1CCCCC1
3. CO[C@@]1(NC(=O)Cc2cccs2)C(=O)N2C(C(=O)O)=C(COC(N)=O)CS[C@@H]21
4. C=C(C)[C@H]1Cc2c(ccc3c2O[C@@H]2COc4cc(OC)c(OC)cc4[C@@H]2C3=O)O1
5. CN[C@@H]1[C@@H](O[C@H]2O[C@H](CO)[C@@H](N)[C@H](O)[C@H]2O)O[C@H]2C[C@@H](N)[C@H](O[C@H]3[C@H](O)[C@@H](O)[C@H](N)C[C@@H]3N)O[C@@H]2[C@@H]1O
6. CC(=O)OCC1=C(C(=O)O)N2C(=O)[C@@H](NC(=O)CCCC(N)C(=O)O)C2SC1 (stereo partly specified)

Response:
0.955 (inactive)
0.977 (inactive)
0.968 (inactive)
0.979 (inactive)
1.01 (inactive)
1 (inactive)

Please state normalized growth for every molecule in the list that follows.
1. NC[C@H]1O[C@H](O[C@H]2C(O[C@@H]3O[C@H](CO)[C@@H](O)[C@H]3O)[C@@H](O)[C@H](N)C[C@@H]2N)[C@H](N)[C@@H](O)[C@@H]1O (stereo partly specified)
2. NC[C@H]1O[C@H](O[C@H]2[C@H](O)[C@@H](O[C@H]3O[C@H](CO)[C@@H](O)[C@H](N)[C@H]3O)[C@H](N)C[C@@H]2N)[C@H](N)C[C@@H]1O
3. CC(=O)NO
4. CNCC[C@@H](Oc1ccccc1)c1ccccc1
5. NC(N)=NC(N)=Nc1ccccc1
6. O=c1[nH]cnc2c1ncn2C1O[C@H](CO)[C@@H](O)[C@H]1O (stereo partly specified)
7. C1CCC(C(CC2CCCCN2)C2CCCCC2)CC1 (stereo unspecified)

Response:
["0.992 (inactive)", "1.01 (inactive)", "0.963 (inactive)", "0.979 (inactive)", "1 (inactive)", "0.978 (inactive)", "0.973 (inactive)"]

For the 2 molecules below, give their normalized growth values.
1. CC(=O)Oc1cccc2c1C(=O)c1c(OC(C)=O)cc(C(=O)O)cc1C2=O
2. O=C(O)[C@H](O)[C@@](O)(Cc1ccc(O)cc1)C(=O)O

Response:
["0.957 (inactive)", "1.02 (inactive)"]

Per the record, "O=c1oc2c(O)c(O)cc3c(=O)oc4c(O)c(O)cc1c4c23" has normalized growth of 0.938 (inactive)
